Each entry below carries its recorded koff.
Target: T1, recombinant human CXCR3 (human, UniProt P49682 1-368, limits assumed)
T1 construct: also called C-X-C motif chemokine receptor 3
T1 sequence (looked up): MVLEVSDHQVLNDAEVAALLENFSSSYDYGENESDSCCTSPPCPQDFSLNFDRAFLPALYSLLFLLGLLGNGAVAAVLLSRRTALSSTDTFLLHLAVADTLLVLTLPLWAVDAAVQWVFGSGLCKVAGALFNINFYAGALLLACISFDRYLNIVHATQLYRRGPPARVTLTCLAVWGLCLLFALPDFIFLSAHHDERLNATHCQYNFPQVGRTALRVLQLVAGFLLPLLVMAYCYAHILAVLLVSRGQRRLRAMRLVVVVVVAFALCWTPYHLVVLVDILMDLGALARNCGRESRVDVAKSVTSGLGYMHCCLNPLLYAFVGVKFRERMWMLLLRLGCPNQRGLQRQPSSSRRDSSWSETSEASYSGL
Test: binding kinetics; method and antigen not given
All answers are understood in s⁻¹, so give the number only.

Consider the reported koff for these binders:
binder: humanized clone 53 HuAntibody 31 (antibody, V domains shown, humanized anti-human CXCR3 mAb) VH: EVQLLESGGGLVQPGGSLRLSCAASGFTFTSYAMSWVRQAPGKGLEWVATISHGGTYTYYPDSVKGRFTISRDNAKNTLYLQMNSLRAEDTAMYYCARHPIYSGNYQGYFDYWGQGTLVTVSS VL: DIQLTQSPSFLSASVGDRVTITCRASSGVNYLYWYQQKPGKAPKLWIYFTSTLASGVPSRFSGSGSGNEYTLTISSLQPEDFATYYCQQFTSSPYTFGGGTKLEIK
result type: koff
reported: 5e-05
//
binder: humanized clone 53 HuAntibody 27 (antibody, V domains shown, humanized anti-human CXCR3 mAb) VH: EVQLLESGGGLVQPGGSLRLSCAASGFTFTSYAMSWVRQAPGKGLEWVATISHGGTYTYYPDSVKGRFTISRDNAKNTLYLQMNSLRAEDTAMYYCARHPIYSGNYQGYFDYWGQGTLVTVSS VL: DIQLTQSPSFLSASVGDRVTITCRASSGVNYLYWYQQKPGKAPKLWIYFTSTLAPGVPSRFSGSGSGNEYTLTISSLQPEDFATYYCQQFTSSPYTFGQGTKLEIK
result type: koff
reported: 8.34e-06
//
binder: humanized clone 53 HuAntibody 29 (antibody, V domains shown, humanized anti-human CXCR3 mAb) VH: EVQLLESGGGLVQPGGSLRLSCAASGFTFTSYAMSWVRQAPGKGLEWVATISHGGTYTYYPDSVKGRFTISRDNAKNTLYLQMNSLRAEDTAVYYCARHPIYSGNYQGYFDYWGQGTLVTVSS VL: DIQLTQSPSFLSASVGDRVTITCRASSGVNYLYWYQQKPGKAPKLWIYFTSTLAPGVPSRFSGSGSGNEYTLTISSLQPEDFATYYCQQFTSSPYTFGQGTKLEIK
result type: koff
reported: 3.5e-05

Need koff of humanized clone 53 HuAntibody 26 (antibody, V domains shown, humanized anti-human CXCR3 mAb) VH: EVQLLESGGGLVQPGGSLRLSCAASGFTFTSYAMSWVRQAPGKGLEWVAVISHGGTYTYYADSVKGRFTISRDNAKNTLYLQMNSLRAEDTAVYYCARHPIYSGNYQGYFDYWGQGTLVTVSS VL: DIQLTQSPSFLSASVGDRVTITCRASSGVNYLYWYQQKPGKAPKLWIYFTSTLAPGVPSRFSGSGSGNEYTLTISSLQPEDFATYYCQQFTSSPYTFGQGTKLEIK , thanks.
5.46e-05

Look up koff for this binder: humanized clone 53 HuAntibody 30 (antibody, V domains shown, humanized anti-human CXCR3 mAb) VH: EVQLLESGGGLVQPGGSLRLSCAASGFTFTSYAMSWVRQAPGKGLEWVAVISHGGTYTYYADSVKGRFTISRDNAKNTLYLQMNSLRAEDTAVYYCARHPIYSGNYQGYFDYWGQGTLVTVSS VL: DIQLTQSPSFLSASVGDRVTITCRASSGVNYLYWYQQKPGKAPKLWIYFTSTLASGVPSRFSGSGSGNEYTLTISSLQPEDFATYYCQQFTSSPYTFGGGTKLEIK
0.000126

Each recorded value in this set is attributed to patent US20180244787A1.
